B1: USP39 (parent)
chain: TLSEAYIQIWKRRDNDETNQQGA

Variants of: B1
METHOD DESCRIPTION: protein stability index of a GFP-peptide fusion (GPS, HEK-293T) (PSI 1-6); higher = more stable;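 further: lentivirally expressed fusions sorted by FACS into six bins by GFP to DsRed ratio, PSI derived from sequencing read proportions per bin multiplied by bin number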
CONDITIONS USED: c terminus: native
Each record's protein stability index is compared with interval 1 = under 2, interval 2 = from 2 up to 3, interval 3 = 3 and over to give its class.

# bin lookup: classify `D14Q` by its protein stability index
interval 2

Assign a category based on measured protein stability index for `T18Q` and give only the class name.
interval 1

// bin(item) where item = `Q8G`
interval 2

Band assignment needed for `D16S` please.
interval 2

Which of the defined bands does the recorded protein stability index of `T1Q` sit within?
interval 2

Class for `I9Q` ?
interval 3

Could you tell me which band `L2T` belongs to?
interval 2

Which class holds `T1C` ?
interval 2

Class label required: `Y6N`
interval 1

Could you place `A5R` in its proper category? Many thanks.
interval 3

For `E4M` , which protein stability index bin applies?
interval 2

Kindly state the category for this variant: `D16P`
interval 1

Pick a category. Item: `N19W`
interval 2

Classify this variant: `A23Q`
interval 3

For `T1G` , which protein stability index bin applies?
interval 3

Which band does `T1Y` fall in?
interval 1

Looking at `E17H` , which class would you pick?
interval 1

Any idea which band `T1K` is in?
interval 2

Hi, small favor: classify `T18W` by its protein stability index when you get a moment.
interval 2

Would you mind sorting `Q8L` into the appropriate category?
interval 1

Place this variant in its band: `A5M`
interval 2

Please classify: `E4V`
interval 2

For the record `D16L` , report the class its protein stability index corresponds to.
interval 2

Looking at `T1M` , which class would you pick?
interval 2

Band for `N19K` ?
interval 2

Band assignment needed for `Y6S` please.
interval 2

Using the reported protein stability index, which band applies to `Q20A` ?
interval 2

Lab note: sort `T1A` into the matching protein stability index band.
interval 2

Hi there! Could you help me figure out the category for `Q21R` please?
interval 1

Where would `E4D` land among the classes by reported protein stability index?
interval 2

Sort `R13D` into one of the categories.
interval 3

Input `T18P` ; output its category
interval 1

The entry to classify is `S3C` ; which class holds it?
interval 2

Band of `Q21W` ?
interval 1

Hi, small favor: classify `I7K` by its protein stability index when you get a moment.
interval 3

Classify this variant: `I9D`
interval 2

Could you place `E4H` in its proper category? Many thanks.
interval 2

For the record `D14V` , report the class its protein stability index corresponds to.
interval 2

Exercise: read the entry `I9N` and state which class it falls under.
interval 3

Class? Entry: `A5S`
interval 2

Please let me know in which category the item `R13M` belongs.
interval 2

Hey, which category is `E17W` in, do you know?
interval 2

Lab note: which band did `N15M` land in?
interval 1

Assign a category based on measured protein stability index for `S3F` and give only the class name.
interval 2

Assign a bin to `R13T`
interval 2

Which category does the recorded protein stability index put `T1I` in?
interval 2

// return the class label for `N19H`
interval 2

Into which category would you place `Q20N` ?
interval 3

Categorize the following entry: `Q21Y`
interval 2

Bin? `W10S`
interval 3

Kindly identify the class of `G22C` .
interval 2

Which protein stability index band matches `R12S` ?
interval 2

// return the class label for `Q20M`
interval 3

Lab note: which band did `L2V` land in?
interval 2

Returns: class label. Input: `L2H`
interval 3

Bin this entry: `D14W`
interval 1

Sort into band: `A23D`
interval 3

Please indicate the class for `Q20C` based on its protein stability index.
interval 2

Exercise: read the entry `A5H` and state which class it falls under.
interval 2

Which category fits this record: `I9A`
interval 2

Band of `S3G` ?
interval 2

Bin this entry: `I7S`
interval 3

Kindly identify the class of `N15E` .
interval 3

Please report the category associated with `Y6P` , nothing else.
interval 2

Category of `Q8Y` , please.
interval 2

Just checking, what class would you give `R13F` here?
interval 1

Given `E17Y` , name the class its protein stability index places it in.
interval 1

The entry to classify is `G22W` ; which class holds it?
interval 2

Please report the category associated with `Q20Y` , nothing else.
interval 2

Exam item: assign `N15R` to the correct category.
interval 2

Which category does the recorded protein stability index put `R12N` in?
interval 3

Hello team, could you let me know which band the following variant falls into: `N19C`
interval 2

For the record `Y6D` , report the class its protein stability index corresponds to.
interval 3

Which bin, given its protein stability index, does `I7D` occupy?
interval 3

Lab note: sort `L2R` into the matching protein stability index band.
interval 2

Record `R12V` — which class?
interval 1
